Origin of measurements: the METLIN SMRT retention time set (Domingo-Almenara et al. 2019)

# protocol text: gradient 5% acetonitrile 3 min, to 50% in 2 min, to 85% in 15 min, held 3 min, 100 µL/min
# measurement parameters: column: Zorbax Extend-C18 2.1 x 50 mm; eluents: water / acetonitrile, 0.1% formic acid
quantity measured: RP-LC retention time (s)
Only the number, expressed in s, is required.

Looking up CC1Oc2ccc(-c3csc(NC(=O)C4CCCCC4)n3)cc2N(C)C1=O (stereo not drawn) , I see its RP-LC retention time listed as 1040

Looking up O=C(Cn1nc(N2CCSCC2)c2ccccc2c1=O)Nc1ccccc1C(F)(F)F , I see its RP-LC retention time listed as 979

Looking up CCc1nnc(-c2ccc3ccn(CC(=O)Nc4cc(OC)ccc4OC)c3c2)o1 , I see its RP-LC retention time listed as 770

Looking up Cc1ccc(-n2ncc3c(=O)n(Cc4nc(-c5ccc(Cl)c(F)c5)no4)cnc32)cc1 , I see its RP-LC retention time listed as 1210

Looking up C=C(C)CSc1nnc(-c2ccc(OC)cc2)o1 , I see its RP-LC retention time listed as 1030

Looking up CCOc1ccc(Nc2c(-c3ccc(SC)cc3)nc3cnccn23)cc1 , I see its RP-LC retention time listed as 994

Looking up O=C(C1=CN(c2cccc(F)c2)c2cc(F)ccc2S1(=O)=O)N1CCOCC1 , I see its RP-LC retention time listed as 755

Looking up CCN(CC)C(=O)c1cnc2snc(C)c2c1N1CCC(C(=O)Nc2ccc(Br)cc2)CC1 , I see its RP-LC retention time listed as 990
